- Assayed Target: UniProtKB O14746
- Sequence (O14746 whole entry): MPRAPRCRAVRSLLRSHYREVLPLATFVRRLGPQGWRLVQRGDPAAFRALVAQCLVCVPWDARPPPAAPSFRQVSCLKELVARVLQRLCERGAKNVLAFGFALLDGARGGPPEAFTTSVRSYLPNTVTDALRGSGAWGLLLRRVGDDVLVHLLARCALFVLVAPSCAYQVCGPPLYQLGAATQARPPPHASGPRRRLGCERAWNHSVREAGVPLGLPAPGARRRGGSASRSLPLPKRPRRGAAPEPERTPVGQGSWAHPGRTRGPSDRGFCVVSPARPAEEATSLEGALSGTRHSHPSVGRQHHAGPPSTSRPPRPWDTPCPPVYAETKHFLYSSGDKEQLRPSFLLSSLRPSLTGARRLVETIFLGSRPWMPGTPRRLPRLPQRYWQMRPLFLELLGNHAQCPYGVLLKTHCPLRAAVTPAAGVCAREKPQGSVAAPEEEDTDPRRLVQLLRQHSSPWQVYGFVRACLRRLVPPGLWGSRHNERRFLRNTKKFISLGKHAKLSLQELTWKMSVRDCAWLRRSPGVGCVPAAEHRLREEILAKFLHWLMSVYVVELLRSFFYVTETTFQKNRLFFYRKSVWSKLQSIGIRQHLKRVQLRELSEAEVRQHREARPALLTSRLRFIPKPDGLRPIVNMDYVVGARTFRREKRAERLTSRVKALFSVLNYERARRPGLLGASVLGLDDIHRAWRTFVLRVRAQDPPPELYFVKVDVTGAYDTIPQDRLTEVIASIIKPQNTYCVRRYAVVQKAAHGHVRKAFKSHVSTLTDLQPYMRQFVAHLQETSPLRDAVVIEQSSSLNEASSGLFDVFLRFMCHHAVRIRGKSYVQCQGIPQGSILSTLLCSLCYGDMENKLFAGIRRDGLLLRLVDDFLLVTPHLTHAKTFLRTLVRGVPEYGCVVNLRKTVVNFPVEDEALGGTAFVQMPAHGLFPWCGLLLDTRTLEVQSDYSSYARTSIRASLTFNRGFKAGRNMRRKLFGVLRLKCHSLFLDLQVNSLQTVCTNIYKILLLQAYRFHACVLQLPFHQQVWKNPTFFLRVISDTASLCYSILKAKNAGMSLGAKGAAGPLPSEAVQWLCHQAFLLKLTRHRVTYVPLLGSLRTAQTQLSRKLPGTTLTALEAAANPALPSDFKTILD
- Test Summary: Inhibition of telomerase extracted from human A549 cells by TRAP-LIG assay
pIC50: −log10 of the molar value.
Experimental Readout: pIC50

(P) OCCN1CCN(c2ccc3nc(-c4ccc5c(c4)CN4CN5Cc5cc(-c6nc7ccc(N8CCN(CCO)CC8)cc7[nH]6)ccc54)[nH]c3c2)CC1
(Q) CN1CCN(c2ccc3nc(-c4ccc5c(c4)CN4CN5Cc5cc(-c6nc7ccc(N8CCN(C)CC8)cc7[nH]6)ccc54)[nH]c3c2)CC1
## Task Which value of pIC50 is greater, the one for P or the one for Q ? Mark your answer with the label of the selected entry.
## Result P

Cited source: ChEMBL document CHEMBL2169774
